Each recorded value in this set is attributed to patent US20210388107A1.

# measured-on: T1, human SIRPαBIT expressed on cells (human, UniProt P78324 31-504)
# T1 construct: endogenous on U937 cells or transiently expressed on ExpiCHO-S cells; in the SHP-1 assay a ProLink-tagged form on Jurkat cells; also called huSIRPαBIT; U937 cells (huSIRPαBIT)
# protocol-description: flow cytometry, U937 cells
// reported EC50 per item
# number only, unit µg/mL dropped from output

Use the examples below as a reference point.
AB115-LALA (AB115 human IgG1-kappa, LALA) (antibody, V domains shown) VH: VQLVESGGGVVRPGESLRLSCAASGFSFSSYAMNWVRQAPGEGLEWVSRINSGGGGTDYAESVKGRFTISRDNSENTLYLQMNSLRAEDTAVYYCAKQYDWNSFFDYWGLGALVTVSS VL: ETVLTQSPATLSVSPGERATLSCRASQTVGSKLAWHQQKPGQAPRLLIYDATNRATGISDRFSGSGSGTDFTLTISSLQTEDSAVYYCQQYYYWPPYRFGGGTKVEIKR: 1.43
7H9-LALA (7H9 mouse-human chimeric IgG1-kappa, LALA) (antibody, V domains shown) VH: DVQLQESGPGLVKPSQSLSLTCTVTGFSISRGYDWHWIRHFPGNILEWMGYITYSGISNYNPSLKSRISITHDTSKNHFFLRLNSVTAEDTATYYCARGGGAWFTYWGQGTLVTVSA VL: DIVMTQSPATLSVTPGDRVSLSCRASQSISDSLHWYHQKSHESPRLLIKYASQSISGIPSRFSAGGSGSDFTLTINSVEPEDVGVYYCQNGHSLPWTFGGGTKLEIKR: 1.08

Attention now turns to another entry.
IN: Tell me the measured EC50 of AB3-LALA (AB3 chicken-human chimeric IgG1-kappa, LALA) (antibody, V domains shown) VH: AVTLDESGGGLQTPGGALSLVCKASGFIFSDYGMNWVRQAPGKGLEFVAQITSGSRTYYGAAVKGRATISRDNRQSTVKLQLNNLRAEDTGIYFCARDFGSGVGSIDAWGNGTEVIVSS VL: ALTQPASVSANLGGTVKITCSGSRGRYGWYQQRSPGSAPVTVIYRDNQRPSNIPSRFSSSTSGSTSTLTITGVQADDESVYFCGSYDGSIDIFGAGTTLTVLR , please.
OUT: 0.06
